# target under test: recombinant human arginase 1 (hARG1) (Homo sapiens, UniProt P05089)
# Sequence (P05089 whole entry): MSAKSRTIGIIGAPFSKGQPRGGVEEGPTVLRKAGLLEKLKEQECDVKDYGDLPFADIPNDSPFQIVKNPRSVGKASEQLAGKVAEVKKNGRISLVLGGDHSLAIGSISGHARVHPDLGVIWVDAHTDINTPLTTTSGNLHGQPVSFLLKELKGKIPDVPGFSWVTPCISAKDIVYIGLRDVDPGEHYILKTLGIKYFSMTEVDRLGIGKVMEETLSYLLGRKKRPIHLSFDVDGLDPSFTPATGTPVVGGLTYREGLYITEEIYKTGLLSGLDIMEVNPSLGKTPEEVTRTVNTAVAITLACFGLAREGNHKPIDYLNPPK
# procedure details: Human arginase inhibition assay (colorimetric urea detection), arginase 1
# conditions used: IC50 class; hydrochloride salts; 1 h at 37° C., pH 7.4, 10 mM L-arginine, 200 μM MnCl2; read-out: Activity Class (ARG I)
Where a name gives a salt, the structure may show the parent alone.
measurement label: IC50

Would you please look over these solved cases?
compound	IC50
CC(C)C[C@H](N)C(=O)NC[C@@H]1CC[C@@H](CCB(O)O)C[C@]1(N)C(=O)O [Example 6, dihydrochloride]	1 to 99 nM
N=C(N)NCCC[C@H](N)C(=O)NC[C@@H]1CC[C@@H](CCB(O)O)C[C@]1(N)C(=O)O [Example 13, trihydrochloride]	1 to 99 nM
NCCCC[C@H](N)C(=O)NC[C@@H]1CC[C@@H](CCB(O)O)C[C@]1(N)C(=O)O [Example 9, trihydrochloride]	1 to 99 nM
C[C@@H](N)C(=O)NC[C@@H]1CC[C@@H](CCB(O)O)C[C@]1(N)C(=O)O [Example 22, dihydrochloride]	1 to 99 nM
N[C@@H](CS)C(=O)NC[C@@H]1CC[C@@H](CCB(O)O)C[C@]1(N)C(=O)O [Example 27, dihydrochloride]	200 to 299 nM
CNCC(=O)NC[C@@H]1CC[C@@H](CCB(O)O)C[C@]1(N)C(=O)O [Example 31, dihydrochloride]	100 to 199 nM
CC(C)(C)[C@H](N)C(=O)NC[C@@H]1CC[C@@H](CCB(O)O)C[C@]1(N)C(=O)O [Example 12, dihydrochloride]	1 to 99 nM
NC(=O)C[C@H](N)C(=O)NC[C@@H]1CC[C@@H](CCB(O)O)C[C@]1(N)C(=O)O [Example 15, dihydrochloride]	200 to 299 nM
Cn1cc(C[C@@H](N)C(=O)NC[C@@H]2CC[C@@H](CCB(O)O)C[C@]2(N)C(=O)O)c2ccccc21 [Example 26, dihydrochloride]	100 to 199 nM
N[C@@H](Cc1c[nH]cn1)C(=O)NC[C@@H]1CC[C@@H](CCB(O)O)C[C@]1(N)C(=O)O [Example 8, trihydrochloride]	100 to 199 nM

Problem: Please tell me: IC50 of N[C@@H](Cc1ccc(O)cc1)C(=O)NC[C@@H]1CC[C@@H](CCB(O)O)C[C@]1(N)C(=O)O [Example 14, dihydrochloride] , system recombinant human arginase 1 (hARG1) (Homo sapiens, UniProt P05089)?
Result: 200 to 299 nM

Problem: Also CC(C)[C@H](N)C(=O)N(C)C[C@@H]1CC[C@@H](CCB(O)O)C[C@]1(N)C(=O)O [Example 25, dihydrochloride] ?
Result: 1 to 99 nM

Problem: Same lookup for N[C@@H](Cc1ccccc1)C(=O)NC[C@@H]1CC[C@@H](CCB(O)O)C[C@]1(N)C(=O)O [Example 3, dihydrochloride] , please.
Result: > 300 nM

Problem: And for CC(C)[C@@H](N)C(=O)NC[C@@H]1CC[C@@H](CCB(O)O)C[C@]1(N)C(=O)O [Example 23, dihydrochloride] ?
Result: 1 to 99 nM

Problem: Let us now turn to CN[C@]1(C(=O)O)C[C@H](CCB(O)O)CC[C@H]1CNC(=O)[C@H](C)N [Example 36, dihydrochloride]
Result: > 300 nM

Problem: Moving on to the next compound: CSCC[C@H](N)C(=O)NC[C@@H]1CC[C@@H](CCB(O)O)C[C@]1(N)C(=O)O [Example 17, dihydrochloride]
Result: 1 to 99 nM

Problem: Cool, now N[C@@H](CO)C(=O)NC[C@@H]1CC[C@@H](CCB(O)O)C[C@]1(N)C(=O)O [Example 7, dihydrochloride]
Result: 100 to 199 nM

Problem: Entry to check: N[C@@H](CCC(=O)O)C(=O)NC[C@@H]1CC[C@@H](CCB(O)O)C[C@]1(N)C(=O)O [Example 30, dihydrochloride]
Result: > 300 nM

Problem: Next entry: C[C@H](N)C(=O)N(C)C[C@@H]1CC[C@@H](CCB(O)O)C[C@]1(N)C(=O)O [Example 24, dihydrochloride]
Result: 100 to 199 nM

Problem: Repeat for the following compound: CC(C)(O)[C@H](N)C(=O)NC[C@@H]1CC[C@@H](CCB(O)O)C[C@]1(N)C(=O)O [Example 16, dihydrochloride]
Result: 100 to 199 nM

Problem: Would you kindly repeat that for C[C@H](N)C(=O)NC[C@@H]1CC[C@@H](CCB(O)O)C[C@]1(N)C(=O)O [Example 1, dihydrochloride] ?
Result: 100 to 199 nM

Problem: What about NC(=O)CC[C@H](N)C(=O)NC[C@@H]1CC[C@@H](CCB(O)O)C[C@]1(N)C(=O)O [Example 28, dihydrochloride] ?
Result: 100 to 199 nM

Problem: What do you get for CC(C)[C@H](N)C(=O)NC[C@@H]1CC[C@@H](CCB2OC(=O)CC(CC(=O)O)(C(=O)O)O2)C[C@]1(N)C(=O)O (some centres unmarked) [Example 33, dihydrochloride] ?
Result: 100 to 199 nM
